system: OVCAR-4; test: NCI tumour cell line growth inhibition, 48 h
The source made the active and inactive calls. Rule as the data show it: active = GI50 up to about 1.1 µM and inactive = higher.
observable: GI50

>  <compound>
C=CCn1c(-c2ccc(/N=N/Nc3ccc(-c4n[nH]c(=S)n4CC=C)cc3)cc2)n[nH]c1=S

>  <observable>
GI50

>  <measurement>
2.53 µM (inactive)

$$$$
>  <compound>
CCOC(=O)c1[nH]c2cc(OC)c(OC)cc2c1CN(C)C

>  <observable>
GI50

>  <measurement>
> 100 µM (inactive)

$$$$
>  <compound>
CC(=O)Oc1ccc(/C=C/C(=O)NCC(NC(=O)/C=C/c2ccc(OC(C)=O)c(OC(C)=O)c2)C(=O)O)cc1OC(C)=O (stereo not given)

>  <observable>
GI50

>  <measurement>
> 100 µM (inactive)

$$$$
>  <compound>
O=C(O)Cc1ccc([N+](=O)[O-])cc1[N+](=O)[O-]

>  <observable>
GI50

>  <measurement>
> 100 µM (inactive)

$$$$
>  <compound>
Clc1ccc(C2C3COc4ccccc4C3=NN2c2ccccc2)cc1 (stereo not given)

>  <observable>
GI50

>  <measurement>
> 100 µM (inactive)

$$$$

IN: Entry "Cn1c(N=P(c2ccccc2)(c2ccccc2)c2ccccc2)c([N+](=O)[O-])c(=O)n(C)c1=O" : reported GI50 = ?
OUT: 41.1 µM (inactive)

IN: What measured GI50 goes with CSC1=NC(=O)CCN1C1OCC(OC(C)=O)C(OC(C)=O)C1OC(C)=O (stereo not given) ?
OUT: 19.2 µM (inactive)

IN: Need GI50 of COC(=O)C1C(C(=O)OC)C2(OC)c3ccccc3-c3ccccc3C12 (stereo not given) , thanks.
OUT: 48.2 µM (inactive)

IN: Given the entry "COc1cc(/C=C/c2nc(NC(=S)Nc3ccccc3)nnc2C)cc(OC)c1OC" , report its measured GI50.
OUT: 18.7 µM (inactive)

IN: Which value of GI50 has been reported for CC1C=C(OC(=O)c2ccccc2)C(=O)C(n2cc(F)c(=O)[nH]c2=O)O1 (stereo not given) in the records?
OUT: 53.2 µM (inactive)

IN: # input compound: "C[C@H](N[C@H]1CCC[C@]1(O)C#Cc1ccc2c(c1)OCO2)c1ccccc1" ; wanted: its GI50
OUT: 14 µM (inactive)

IN: Find the recorded GI50 belonging to CC(=O)C(CN1CCCCC1)C(c1ccccc1)c1c(O)c2ccccc2oc1=O (stereo not given) and report it.
OUT: > 100 µM (inactive)

IN: Given the entry CC[C@]1(O)CC(OC2CC(N(C)C)C(O)C(C)O2)c2c(cc3c(c2O)C(=O)c2c(O)cccc2C3=O)[C@@H]1C(=O)OC (stereo not given in full) , report its measured GI50.
OUT: 0.114 µM (active)

IN: Returns the measured GI50 for the input compound. Input: "CC(=O)c1c(O)c2c([nH]c1=O)CCCC2"
OUT: > 100 µM (inactive)

IN: If you can, please state the reported GI50 value of COC1CC(n2cc(F)c(N)nc2=O)OC1CO (stereo not given) .
OUT: > 100 µM (inactive)

###

test system: LXFL 529; test: NCI tumour cell line growth inhibition, 48 h
Active and inactive are the calls of the source. Rule as the data show it: active = GI50 up to about 1.1 µM and inactive = higher.
Readings of GI50 for the listed molecules

>  <molecule>
Cc1cccc(C(C)(C)C)c1NC(=O)CCc1n[nH]c(=S)o1

>  <GI50>
> 100 µM (inactive)

$$$$
>  <molecule>
Cc1c(-c2ccccc2)c(=O)oc2ccc(Cl)cc12

>  <GI50>
> 100 µM (inactive)

$$$$
>  <molecule>
CCCc1n[nH]c(CCC(=O)N(Cc2ccccc2)Cc2ccccc2)c1CC

>  <GI50>
> 100 µM (inactive)

$$$$

IN: Look at this molecule and give its reported GI50. COc1cc2c(cc1OC)C1Cc3cc(OC)c(OC)cc3N1CC2 (configuration not stated)
OUT: 19.3 µM (inactive)

IN: Tell me the measured GI50 of "COc1cc(-c2n[nH]cc2CCCC(=O)Nc2ccccc2[N+](=O)[O-])ccc1O" , please.
OUT: > 100 µM (inactive)

IN: Quick one: GI50 of "O=C1CCC(=O)N2CCCCN12" ?
OUT: > 100 µM (inactive)

IN: Requested field: GI50. Item: "C=C(C(=C)P(=S)(C(C)C)C(C)C)P(=S)(C(C)C)C(C)C"
OUT: > 100 µM (inactive)

IN: What does the data say about its GI50? Entry: Cc1occ2c1C(=O)CC1C2[C@@H](O)CC2C(C)(C)CCC[C@]12C (some centres not stated)
OUT: > 100 µM (inactive)

IN: GI50 for COC(=O)C(=O)C(CC(=O)Nc1c(C)cccc1C)C(=O)OC (configuration not stated) ?
OUT: > 100 µM (inactive)

IN: Which GI50 reading was recorded for the molecule "COC(=O)C1=C(O)c2cc(-c3ccccc3)c(-c3ccccc3)c(C#N)c2NC(=O)C1" ?
OUT: 1.3 µM (inactive)

IN: Tell me the measured GI50 of "C/C(CC(=O)Nc1ccc([N+](=O)[O-])cc1)=N\NC(N)=O" , please.
OUT: > 80.2 µM (inactive)

IN: What does the record list as GI50 for "Cc1nc2ccccc2[s+]c1-c1cnc(NC#N)nc1C(=O)Nc1cccc(Cl)c1" ?
OUT: > 100 µM (inactive)

###

system: A498; assay: NCI tumour cell line growth inhibition, 48 h
Calls of active or inactive are those of the source. Rule as the data show it: active = GI50 up to about 1.1 µM and inactive = higher.
Form entry, call: pick from Y for active, N for inactive

Worked examples follow.
>  <molecule>
COc1cc(/C=C/C(=O)C2(C(=O)/C=C/c3cc(OC)c(OC)c(OC)c3)CCCCC2)cc(OC)c1OC

>  <class_assignment>
N

$$$$
>  <molecule>
CC(C)(C)N/N=C(\C(=O)NC1=C(Cl)C(=O)c2ccccc2C1=O)C1C=CCS1(=O)=O (stereo unspecified)

>  <class_assignment>
N

$$$$
>  <molecule>
COC1=CCC2=C(CCN(C(=O)C3CC3)C2Cc2ccc(OC)c(O)c2)C1 (stereo unspecified)

>  <class_assignment>
N

$$$$
>  <molecule>
c1ccc(NCCSc2nc3ccccc3s2)cc1

>  <class_assignment>
N

$$$$
>  <molecule>
CC(=O)O[C@@H]1C2=C(C)C=C(O2)[C@H]2O[C@]2(C)C[C@H]2C=C(C(=O)O2)[C@H](OC(C)=O)CC1[C@@]1(C)CO1 (stereo partly specified)

>  <class_assignment>
N

$$$$

IN: Called result for O=C1C2CC(Cl)C(SSC3CC4C(=O)N(SC(Cl)(Cl)C(Cl)Cl)C(=O)C4CC3Cl)CC2C(=O)N1SC(Cl)(Cl)C(Cl)Cl (stereo unspecified)
OUT: N

IN: I would be grateful if you could indicate the recorded call for "COc1cc2c(/C=C3/C(=O)Nc4ccccc43)c(Cl)n(Cc3ccc(Cl)cc3)c2cc1C" .
OUT: Y

IN: Dear colleague, could you share the recorded outcome for "CCCCCCC(=O)OC[n+]1cccc(-c2c(COC(=O)NC(C)C)c(COC(=O)NC(C)C)c3n2CCC3)c1" when you have a moment?
OUT: N

IN: Check the results log: what was the call for Fc1ccc(C2SCc3nc4ccccc4n32)cc1Cl (stereo unspecified) ?
OUT: N

IN: Entry O=C(CCCCCCCCC(=O)OCC1OC(n2cnc3c(=O)[nH]cnc32)C(O)C1O)OCC1OC(n2cnc3c(=O)[nH]cnc32)C(O)C1O (stereo unspecified) : call = ?
OUT: N

IN: Kindly provide the recorded test outcome for the following molecule: COC(=O)c1cc(CC2Cc3cc4c(cc3C2=O)CCC4)cc2c1CCC2 (stereo unspecified)
OUT: N

###

tested on: SR; test: NCI tumour cell line growth inhibition, 48 h
Calls of active or inactive are those of the source. No stated cut-off is given here; in the data, active = GI50 up to about 1.1 µM and inactive = higher. *1 amine or outer side, *2 acyl side, *3 side chain or, on linkers, in order; H or OH if unused. Where a SMILES comes first, the peptide text is derived from it. [ ]: non-standard residue; d: D form. The star is where a group is joined. ξ: configuration not given here. X53 = CC(C)C[C@H](N[*:1])C1=N[C@H](C(=O)[*:2])CS1; Ile(3ξ) = CCC(C)[C@H](N)C(=O)O; Allyl(1,1-Me2) = C=CC(C)(C)*; Cbz = O=C(OCc1ccccc1)*; OBn = c1ccc(CO*)cc1
observable: GI50

Example entries and their recorded answers appear below.
>  <compound>
Cc1cc2c(c(=O)n1C)SCC2

>  <tested_system>
SR

>  <measurement>
> 100 µM (inactive)

$$$$
>  <compound>
CCOC(=O)N1N=NC2C3OC(C[C@@]3(C#N)OC(C)=O)[C@H]21 (stereo not given in full)

>  <tested_system>
SR

>  <measurement>
> 100 µM (inactive)

$$$$
>  <compound>
COC(=O)C(Cc1ccc(O)cc1)NC(=O)C(CC(=O)OCc1ccccc1)NC(=O)OCc1ccccc1 (stereo not given) (Cbz-Asp(OBn)-Tyr-OMe; configuration not given here)

>  <tested_system>
SR

>  <measurement>
22.8 µM (inactive)

$$$$

IN: Find the measured GI50: item "CCOC(=O)c1c(CN2CCCC2)n(-c2ccccc2)c2cc(Br)c(OC)cc12" , target or system SR.
OUT: 6.14 µM (inactive)

IN: Request body: readout GI50, system SR, query "CN(C)CCn1c2c3ccccc3ccc2c2oc(=O)c3ccccc3c21" . Return the value.
OUT: 2.78 µM (inactive)

IN: Given the entry Cc1c(C2Cc3ccccc3N2)c2ccccc2n1C (stereo not given) , what GI50 was observed with SR?
OUT: > 100 µM (inactive)

IN: Request body: readout GI50, system SR, query "COc1cc(/C=C/c2nc(NC(=S)Nc3ccccc3)nnc2C)cc(OC)c1OC" . Return the value.
OUT: 12.4 µM (inactive)

IN: GI50 of NC1CC(=O)c2c(I)sc(I)c21 (stereo not given) on SR?
OUT: 13.4 µM (inactive)

IN: Param readout = GI50; param system = SR; param query = Nc1nncc2c1c(Br)cn2C1OC(CO)C(O)C1O (stereo not given) ; response: value
OUT: 2.99 µM (inactive)

IN: Report GI50 for "Cc1ccccc1/N=N/c1ccc(/N=N/c2c(O)ccc3cc(S(=O)(=O)O)cc(S(=O)(=O)O)c23)c(C)c1" tested on SR.
OUT: > 100 µM (inactive)

IN: Under SR: GI50 value of C=CC(C)(C)OC[C@@H]1NC(=O)CNC(=O)[C@@H]2CCCN2C(=O)[C@H](C(C)CC)NC(=O)[C@@H]2CSC(=N2)[C@H](CC(C)C)NC1=O (stereo not given in full) (cyclo(GS(Allyl(1,1-Me2))[X53][Ile(3ξ)]P)) ?
OUT: 64.4 µM (inactive)

IN: Missing value: GI50, SR, entry "CN(C(=O)Cc1cccc(N=C=S)c1)[C@H]1CCCC[C@@H]1N1CCCC1" . Fill in?
OUT: 6.73 µM (inactive)

IN: Find GI50 (SR) for the entry "Cc1cc2c(C)n[nH]c2c(C(=O)O)c1C"
OUT: > 100 µM (inactive)

IN: Item: "O=c1ccc2ccc(CBr)cc2o1" Test system: SR Read-out: GI50 Value: ?
OUT: 2.2 µM (inactive)

IN: What measured GI50 is associated with CN(C)C1C(O)=C(C(=O)NCN2CCCC2)C(=O)C2(O)C(O)=C3C(=O)c4c(O)cccc4C(C)(O)C3CC12 (stereo not given) on SR?
OUT: > 100 µM (inactive)
